Listed molecules paired with reported Kd
assay target: M. abscessus TrmD (Mycobacteroides abscessus, UniProt B1MDI3)
Sequence (B1MDI3 entry or part of it): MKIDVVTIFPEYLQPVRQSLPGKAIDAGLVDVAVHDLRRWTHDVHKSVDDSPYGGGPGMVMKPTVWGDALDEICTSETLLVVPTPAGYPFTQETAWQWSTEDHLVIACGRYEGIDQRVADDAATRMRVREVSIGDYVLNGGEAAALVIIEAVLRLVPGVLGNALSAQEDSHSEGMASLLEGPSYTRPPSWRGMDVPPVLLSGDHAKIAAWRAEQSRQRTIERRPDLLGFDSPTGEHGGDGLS
measurement protocol: biochemical
Type: binding
stated conditions: ITC, 25°C, M. abscessus TrmD; read-out: Kd
A number alone suffices; assume µM.

INSERT INTO assay_data (item_smiles, observable, value_measured) VALUES
  ('N#Cc1c(N)n[nH]c1-c1ccc2ccn(Cc3ccc(CN4CCCC4)cn3)c2c1', 'Kd', 0.092),
  ('Nc1cc(-c2ccc3ccn(Cc4ccccn4)c3c2)[nH]n1', 'Kd', 12),
  ('COc1ccc(-c2cc(N)n[nH]2)cc1', 'Kd', 170),
  ('OB(O)c1ccc2cc[nH]c2c1', 'Kd', 260),
  ('N#Cc1c(N)n[nH]c1-c1ccc2ccn(Cc3ccc(CN4CCCC4)cc3)c2c1', 'Kd', 0.027),
  ('N#Cc1c(N)n[nH]c1-c1ccc2ccn(Cc3ccccn3)c2c1', 'Kd', 0.5);

Next, consider the following molecule.
**Query** Could you share what Kd was measured for Nc1cc(-c2ccc3cc[nH]c3c2)[nH]n1 , tested on M. abscessus TrmD (Mycobacteroides abscessus, UniProt B1MDI3)?
**Result** 110

###

assay target: UniProtKB B1MDI3
measurement protocol: biochemical
Assay type: binding
stated conditions: from M. abscessus TrmD Kd
observable: LE (ligand efficiency) (kcal/ mol/ heavy atom)
A number alone suffices; assume kcal/ mol/ heavy atom.

Worked examples follow.
INSERT INTO measurements (compound, observable, unit_of_measure, value_measured) VALUES
  ('N#Cc1c(N)n[nH]c1-c1ccc2ccn(Cc3ccc(CN4CCCC4)cn3)c2c1 [AW4]', 'LE (ligand efficiency)', 'kcal/ mol/ heavy atom', 0.32),
  ('OB(O)c1ccc2cc[nH]c2c1 [Fragment 24]', 'LE (ligand efficiency)', 'kcal/ mol/ heavy atom', 0.41);

**Query** What does the data say about its LE (ligand efficiency)? Entry: Nc1cc(-c2ccc3cc[nH]c3c2)[nH]n1 [AW1]
**Result** 0.36

**Query** What does the data say about its LE (ligand efficiency)? Entry: N#Cc1c(N)n[nH]c1-c1ccc2ccn(Cc3ccc(CN4CCCC4)cc3)c2c1 [AW5]
**Result** 0.34

**Query** What does the data say about its LE (ligand efficiency)? Entry: N#Cc1c(N)n[nH]c1-c1ccc2ccn(Cc3ccccn3)c2c1 [AW3]
**Result** 0.36

**Query** What does the data say about its LE (ligand efficiency)? Entry: Nc1cc(-c2ccc3ccn(Cc4ccccn4)c3c2)[nH]n1 [AW2]
**Result** 0.30

**Query** What does the data say about its LE (ligand efficiency)? Entry: Nc1cc(-c2ccc3ccn(Cc4ccc(CN5CCCC5)cc4)c3c2)[nH]n1 [AW6]
**Result** 0.31

**Query** What does the data say about its LE (ligand efficiency)? Entry: COc1ccc(-c2cc(N)n[nH]2)cc1 [Fragment 23]
**Result** 0.37

**Query** What does the data say about its LE (ligand efficiency)? Entry: CN1CCN(Cc2ccc(Cn3ccc4ccc(-c5[nH]nc(N)c5C#N)cc43)cc2)CC1 [AW7]
**Result** 0.30

###

Listed molecules paired with reported Kd
assay target: M. abscessus TrmD (Mycobacteroides abscessus)
measurement protocol: biochemical
Type: binding
Write the quantity with the unit trailing the number.

INSERT INTO measurements (item_smiles, value_measured) VALUES
  ('Nc1cc(-c2ccc3ccn(Cc4ccc(CN5CCCC5)cc4)c3c2)[nH]n1', '490 nM');

Next, consider the following molecule.
**Query** What does the data say about its Kd? Entry: CN1CCN(Cc2ccc(Cn3ccc4ccc(-c5[nH]nc(N)c5C#N)cc43)cc2)CC1
**Result** 73 nM
